Molecular target: T1, MUC1 on HCT116/MUC1 cells (UniProt P15941 24-1255, limits assumed)
T1 construct: whole, on cells; also called MUC1 overexpressed cell line
T1 sequence (P15941 24-1255 limits assumed): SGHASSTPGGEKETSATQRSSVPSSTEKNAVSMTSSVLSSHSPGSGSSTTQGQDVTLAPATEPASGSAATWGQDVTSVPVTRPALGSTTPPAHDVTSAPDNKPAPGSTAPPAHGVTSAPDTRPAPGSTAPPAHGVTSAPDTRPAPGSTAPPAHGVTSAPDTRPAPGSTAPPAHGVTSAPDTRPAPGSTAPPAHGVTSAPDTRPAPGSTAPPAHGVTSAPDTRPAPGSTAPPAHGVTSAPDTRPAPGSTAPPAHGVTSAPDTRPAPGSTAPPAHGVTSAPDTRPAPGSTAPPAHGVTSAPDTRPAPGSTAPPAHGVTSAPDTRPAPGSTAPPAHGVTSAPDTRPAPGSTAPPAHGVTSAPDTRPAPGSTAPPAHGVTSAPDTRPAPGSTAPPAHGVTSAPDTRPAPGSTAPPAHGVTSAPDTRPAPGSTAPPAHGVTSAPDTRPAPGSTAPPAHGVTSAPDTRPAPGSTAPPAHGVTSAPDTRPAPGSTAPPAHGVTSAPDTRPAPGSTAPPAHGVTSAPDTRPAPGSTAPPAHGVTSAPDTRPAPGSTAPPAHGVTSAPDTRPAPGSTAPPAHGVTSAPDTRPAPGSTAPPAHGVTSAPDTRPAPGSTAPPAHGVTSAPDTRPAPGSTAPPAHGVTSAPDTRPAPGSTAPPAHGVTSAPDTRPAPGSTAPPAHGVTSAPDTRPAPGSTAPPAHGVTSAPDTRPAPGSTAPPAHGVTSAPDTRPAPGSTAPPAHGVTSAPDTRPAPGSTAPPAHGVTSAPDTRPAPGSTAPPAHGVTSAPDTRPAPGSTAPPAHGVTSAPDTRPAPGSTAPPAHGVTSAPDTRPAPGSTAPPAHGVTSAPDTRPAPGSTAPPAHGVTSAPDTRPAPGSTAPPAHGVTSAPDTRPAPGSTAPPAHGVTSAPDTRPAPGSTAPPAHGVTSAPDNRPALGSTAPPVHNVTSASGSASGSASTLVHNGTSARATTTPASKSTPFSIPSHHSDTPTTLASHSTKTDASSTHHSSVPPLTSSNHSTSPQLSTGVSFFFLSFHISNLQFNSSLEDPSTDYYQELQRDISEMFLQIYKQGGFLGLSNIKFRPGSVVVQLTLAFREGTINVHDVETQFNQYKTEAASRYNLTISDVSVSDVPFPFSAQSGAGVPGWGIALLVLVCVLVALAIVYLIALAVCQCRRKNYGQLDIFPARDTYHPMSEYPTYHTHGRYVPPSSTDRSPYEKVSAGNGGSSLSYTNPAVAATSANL
Test: FACS titration on HCT116/MUC1 cells
pEC50: −log10 of the molar value.

{"columns": ["BINDER", "pEC50"],
 "data": [
  ["VH4 + VL1 (antibody, V domains shown, Humanized IgG expressed in HEK293; also called humanized antibody VH4+VL1) VH: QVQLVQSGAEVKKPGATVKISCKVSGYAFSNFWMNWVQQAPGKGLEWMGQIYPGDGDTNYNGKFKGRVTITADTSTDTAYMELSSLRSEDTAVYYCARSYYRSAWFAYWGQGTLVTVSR VL: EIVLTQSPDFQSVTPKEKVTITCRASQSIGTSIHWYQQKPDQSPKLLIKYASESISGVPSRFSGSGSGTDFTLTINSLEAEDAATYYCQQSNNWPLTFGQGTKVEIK", 7.44],
  ["VH2 + VL4 (antibody, V domains shown, Humanized IgG expressed in HEK293; also called humanized antibody VH2+VL4) VH: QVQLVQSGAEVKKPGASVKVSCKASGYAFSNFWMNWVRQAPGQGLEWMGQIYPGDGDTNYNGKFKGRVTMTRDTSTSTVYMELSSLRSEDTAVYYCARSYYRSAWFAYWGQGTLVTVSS VL: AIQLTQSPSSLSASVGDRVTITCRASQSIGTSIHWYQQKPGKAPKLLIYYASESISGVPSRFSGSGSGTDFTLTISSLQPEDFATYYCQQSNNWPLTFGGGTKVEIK", 7.38],
  ["VH1 + VL1 (antibody, V domains shown, Humanized IgG expressed in HEK293; also called humanized antibody VH1+VL1) VH: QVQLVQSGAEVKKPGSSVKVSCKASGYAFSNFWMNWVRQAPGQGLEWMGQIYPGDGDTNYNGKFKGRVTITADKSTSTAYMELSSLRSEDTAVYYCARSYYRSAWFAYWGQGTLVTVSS VL: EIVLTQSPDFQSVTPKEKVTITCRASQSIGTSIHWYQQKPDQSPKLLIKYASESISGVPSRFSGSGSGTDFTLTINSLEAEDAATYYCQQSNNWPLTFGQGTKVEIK", 7.52]
]}
